assay: DOPR pharmacokinetics after SC administration; details: mouse, in vivo
property: Tmax
For clarity, give the value followed by its unit.

// query Tmax value for entry CCCc1cc(OC)c(CC(C)N)cc1OC (stereo not shown) [DOPR, 2,5-dimethoxy-4-propylamphetamine] 1 h

----------
assay: Human plasma pharmacokinetic parameters of trazodone collected from the literature; format: in vivo; settings: human, plasma; IV, mean of literature values
property: half-life (h)
# output: bare number, implied unit h

// query half-life value for entry O=c1n(CCCN2CCN(c3cccc(Cl)c3)CC2)nc2ccccn12 6.3

----------
experiment: Plasma protein binding, rapid equilibrium dialysis, mouse plasma; type: in vitro ADME; details: pH 7.4, 37° C.
property: fraction unbound at 4 h, 5 μM
API note: the answer field is a bare number with no unit suffix.

// query fraction unbound at 4 h, 5 μM value for entry O=c1n(CCCN2CCN(c3cccc(Cl)c3)CC2)nc2ccccn12 [trazodone] 0.056
